Reported values of Tmax for individual entries
# PROTOCOL_SUMMARY: in vivo
# SETUP_CONDITIONS: both, rhesus monkey, po, 40 mg/kg, Tmax, mean
Counter-ions that a name gives are not always drawn.
RECORDED_METRIC: Tmax (h)

                                   compound  reading
0  CCN(CC)Cc1cc(Nc2ccnc3cc(Cl)ccc23)ccc1O [Amodiaquine dihydrochloride hydrate, amodiaquine dihydrochloride dihydrate]        5
1  CCNCc1cc(Nc2ccnc3cc(Cl)ccc23)ccc1O [N-Desethylamodiaquine hydrochloride, N-desethylamodiaquine hydrochloride]        5
